Target: hMC4R (Homo sapiens (Human))
Sequence (P32245 whole entry): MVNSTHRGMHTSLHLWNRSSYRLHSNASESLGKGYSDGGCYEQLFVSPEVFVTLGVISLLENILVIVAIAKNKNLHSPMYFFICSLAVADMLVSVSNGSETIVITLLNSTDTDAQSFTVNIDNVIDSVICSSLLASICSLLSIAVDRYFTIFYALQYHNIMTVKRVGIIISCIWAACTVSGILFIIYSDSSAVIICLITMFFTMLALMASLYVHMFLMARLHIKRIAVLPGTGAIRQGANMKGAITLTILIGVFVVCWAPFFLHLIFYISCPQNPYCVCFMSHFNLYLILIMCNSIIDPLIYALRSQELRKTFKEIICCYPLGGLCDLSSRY
Test: In vitro binding affinity assay using hMC4R (radioligand competition binding, [125I]-(Nle4, D-Phe7)-α-MSH)
Settings: geometric mean, read-out: Ki (nM) geometric mean
RECORDED_METRIC: Ki (nM)

(A) Cc1nc2c(cc1-c1ncccn1)CC[C@@]1(CCN(C(=O)[C@H](C)c3cc(OC(F)F)ncc3F)C1)N2 (single isomer, unassigned) [Example 78]
(B) Cc1nc2c(cc1-c1ncccn1)CC[C@@]1(CCN(C(=O)[C@H](C)c3cc(OC(F)F)ncc3Cl)C1)N2 (single isomer, unassigned) [Example 59]
(C) Cc1nc2c(cc1-c1ncccn1)CC[C@@]1(CCN(C(=O)[C@H](C)c3cc(OC(F)(F)F)ncc3F)C1)N2 (single isomer, unassigned) [Example 76]
stdin: Sort the entries above by Ki, smallest first. Answer by writing out the labels in the requested order.
stdout: A, C, B
